System Tested: mGluR2 receptor (metabotropic glutamate receptor 2) (Homo sapiens)
Construct: expressed in transfected cells
Sequence (Q14416 19-872, species assumed): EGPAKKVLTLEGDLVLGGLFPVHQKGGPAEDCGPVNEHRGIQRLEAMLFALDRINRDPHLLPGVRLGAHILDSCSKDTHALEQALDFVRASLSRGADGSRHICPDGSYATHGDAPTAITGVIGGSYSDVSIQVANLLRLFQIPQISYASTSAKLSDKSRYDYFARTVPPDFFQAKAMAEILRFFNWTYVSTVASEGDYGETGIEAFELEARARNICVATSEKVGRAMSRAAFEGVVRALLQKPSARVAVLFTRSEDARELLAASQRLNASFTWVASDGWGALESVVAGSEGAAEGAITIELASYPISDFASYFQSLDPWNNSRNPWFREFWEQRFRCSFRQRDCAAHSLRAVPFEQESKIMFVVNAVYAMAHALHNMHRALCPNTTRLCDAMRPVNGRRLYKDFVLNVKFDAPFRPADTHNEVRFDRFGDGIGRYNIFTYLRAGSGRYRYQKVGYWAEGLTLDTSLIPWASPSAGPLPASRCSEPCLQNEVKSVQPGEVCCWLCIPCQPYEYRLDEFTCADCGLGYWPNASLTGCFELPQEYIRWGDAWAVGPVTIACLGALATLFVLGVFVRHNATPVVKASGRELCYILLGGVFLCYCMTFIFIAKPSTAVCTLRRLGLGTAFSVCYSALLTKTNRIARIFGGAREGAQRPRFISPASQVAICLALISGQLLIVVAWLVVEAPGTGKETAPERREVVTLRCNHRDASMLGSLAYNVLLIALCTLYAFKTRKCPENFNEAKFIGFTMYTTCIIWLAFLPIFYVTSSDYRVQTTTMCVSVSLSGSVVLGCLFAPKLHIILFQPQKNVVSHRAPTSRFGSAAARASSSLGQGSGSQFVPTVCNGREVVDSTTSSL
Measurement Description: mGluR2 Potentiator Screen, FLIPR, EC10-EC20 glutamate challenge
Assay type: cell-based
Condition Summary: read-out: EC50
Reported Endpoint: log10 of EC50 (log10 of the value in µM)

Molecule: Cn1c(CN2CCC(c3cccc(C(F)(F)F)c3)CC2)nc2cc(C#N)ccc21
log10 of EC50: -0.55
//
Molecule: CC1CN(CCOc2ccccc2C2CCN(Cc3nc4ccccc4n3C)CC2)CC(C)O1 (stereo not drawn)
log10 of EC50: 0.14
//
Molecule: Cn1c(CN2CCC3(CC2)CN(C(=O)c2ccoc2)c2ccccc23)nc2ccccc21
log10 of EC50: 0.69
//
Molecule: FCCn1c(CN2CCC(c3ccc(F)cc3)CC2)nc2ccccc21
log10 of EC50: -0.24
//
Molecule: COc1ccccc1C1CCC(=O)N(Cc2nc3ccccc3n2C)CC1 (stereo not drawn)
log10 of EC50: 0.67
//
Molecule: Cn1c(CN2CCC(c3ccc(C(F)(F)F)cc3)CC2)nc2cc(C#N)ccc21
log10 of EC50: -1.04
//
Molecule: COc1cc(C(F)(F)F)ccc1C1CCN(Cc2nc3c(Br)cccc3n2C)CC1
log10 of EC50: 0.59
//
Molecule: Cn1c(CN2CCC(c3ccc(C(F)(F)F)cc3)C(O)C2)nc2ccccc21 (stereo not drawn)
log10 of EC50: 0.05
//
Molecule: CC(C)Oc1ccccc1C1CCN(Cc2nc3cc(C#N)ccc3n2C)CC1
log10 of EC50: -0.28
//
Molecule: CCCC(=O)N1CC2(CCN(Cc3nc4ccccc4n3C)CC2)c2cc(C)ccc21
log10 of EC50: -0.41
//
Molecule: Cn1c(CN2CCC(c3ccccc3F)CC2)nc2cc(F)ccc21 [compound 351]
log10 of EC50: -1.06
//
Molecule: Cc1cc(C)c2c(c1)C1(CCN(Cc3nc4ccccc4n3C)CC1)CN2CC(C)C
log10 of EC50: 0.59
//
Molecule: C[C@@H]1CN(Cc2nc3ccccc3n2C)CC[C@@H]1c1ccc(C(F)(F)F)cc1Cl (relative stereo)
log10 of EC50: -1.27
//
Molecule: FC(F)(F)c1ccccc1C1CCN(Cc2nc3ccccc3n2C2CC2)CC1
log10 of EC50: 0.53
//
Molecule: Cn1c(CN2CCC(c3cccc(Cl)c3)CC2)nc2ccccc21
log10 of EC50: -0.74
//
Molecule: Cn1c(CN2CCC(c3ccccc3F)CC2)nc2ccc(C#N)cc21
log10 of EC50: -0.68
//
Molecule: C[C@@H]1CN(Cc2nc3ccccc3n2C)CC[C@@H]1c1ccc(C(F)(F)F)c(F)c1 (relative stereo)
log10 of EC50: -0.43
//
Molecule: COC(=O)CCCCC(=O)N1CC2(CCN(Cc3nc4ccccc4n3C)CC2)c2ccccc21
log10 of EC50: 0.85
//
Molecule: Cc1cccc2c1nc(CN1CCC(c3ccccc3F)CC1)n2C
log10 of EC50: -0.60
//
Molecule: COc1cc(C2CCN(Cc3nc4ccccc4n3C)CC2)ccc1F
log10 of EC50: -0.36
//
Molecule: COc1ccc(C(F)(F)F)cc1C1CCN(Cc2nc3ccccc3n2CCF)CC1
log10 of EC50: 0.22
//
Molecule: FCn1c(CN2CCC(c3ccccc3F)CC2)nc2ccccc21 [compound 253]
log10 of EC50: -0.94
//
Molecule: Cn1c(CN2CCC(c3ccc(Cl)cc3F)CC2)nc2cc(F)ccc21
log10 of EC50: -1.38
//
Molecule: Cn1c(CN2CCC(c3ccc(C(F)(F)F)cc3F)CC2)nc2cc(C#N)ccc21
log10 of EC50: -1.35
//
Molecule: COC(=O)CCC(=O)N1CC2(CCN(Cc3nc4ccccc4n3C)CC2)c2cc(C)ccc21
log10 of EC50: 0.50
//
Molecule: COc1ccccc1C1CCCN(Cc2nc3ccccc3n2C)CC1 (stereo not drawn)
log10 of EC50: -0.56
//
Molecule: CCC(C)CN1CC2(CCN(Cc3nc4ccccc4n3C)CC2)c2cc(C)ccc21 (stereo not drawn)
log10 of EC50: 0.75
//
Molecule: Cn1c(CN2CCC(c3ccc(F)cc3F)CC2)nc2cccc(F)c21
log10 of EC50: -1.32
//
Molecule: CCN1CC2(CCN(Cc3nc4ccccc4n3C)CC2)c2ccccc21
log10 of EC50: 0.70
//
Molecule: Cc1nnsc1C(=O)N1CC2(CCN(Cc3nc4ccccc4n3C)CC2)c2ccccc21
log10 of EC50: 0.32
